# studySystem: T1, LIN7A, O14910
# T1 sequence (O14910 103-200, limits assumed, looked up): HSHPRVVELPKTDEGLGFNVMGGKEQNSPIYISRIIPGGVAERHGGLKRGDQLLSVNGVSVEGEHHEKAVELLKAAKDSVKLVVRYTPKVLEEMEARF
# measurementProtocol: holdup assay
# Parameters: key: below the threshold = too weak to quantify, mostly under pKd 3.1 to 4
# testParameters: plain residues with an end cap or a label only (N-terminal biotin on a linker: ado-ado)
reportedMetric: pKd

Consider the worked cases shown below.
| binder | reportedMetric | observedValue |
| --- | --- | --- |
| DDENIRTSDV [PLEKHA2, Q9HB19] | pKd | below the threshold |
| TLPRKRMSSI [GPRC6A, Q5T6X5] | pKd | below the threshold |
| QGPVETESVV [SLC45A4, Q5BKX6] | pKd | below the threshold |
| PRAEAEDSFL [PDGFRB, P09619] | pKd | 3.56 |

Okay, now this binder:
Task: Recorded pKd for DDPSTAETVL [ABCA7, Q8IZY2] , please?
Output: below the threshold
